Tested on: nitrosoamine-induced pancreatic cancer
Test: in vivo hemorrhagic necrosis effect
Parameters: species or system hamsters; key: four scales of G4, G3, G2 and G1; four scales of G4, G3, G2 and G1; four scales of G4, G3, G2 and G1; four scales of G4, G3, G2 and G1
Details: intensity of hemorrhagic necrosis at 24 hours following i.v. administration, and pathological study
Quantity Name: Hemorrhagic necrosis effect

Molecule: CCCCCCCCOC(C)C1=C(C)C2=Cc3c(C(C)OCCCCCCCC)c(C)c4[n]3[Ga][n]3c(c(C)c(CCC(=O)NC(CC(=O)O)C(=O)O)c3=CC3=NC(=C4)C(C)=C3CCC(=O)NC(CC(=O)O)C(=O)O)=CC1=N2 (stereo not shown) [(12) C8-Ga-DP-diAsp]
Observed Value: G3
--
Molecule: CCCCCCCCCCCCOC(C)C1=C(C)C2=Cc3c(C(C)OCCCCCCCCCCCC)c(C)c4[n]3[Zn][n]3c(c(C)c(CCC(=O)NC(CC(=O)O)C(=O)O)c3=CC3=NC(=C4)C(C)=C3CCC(=O)NC(CC(=O)O)C(=O)O)=CC1=N2 (stereo not shown) [(73) C12-Zn-DP-diAsp]
Observed Value: G2
--
Molecule: CCCCCCCCCCCCOC(C)C1=C(C)c2cc3[nH]c(cc4nc(cc5[nH]c(cc1n2)c(C)c5C(C)OCCCCCCCCCCCC)C(C)=C4CCC(=O)NC(CC(=O)O)C(=O)O)c(CCC(=O)NC(CC(=O)O)C(=O)O)c3C.[Ga] (stereo not shown) [(22) C12-Ga-DP-diAsp]
Observed Value: G2
--
Molecule: CC(C)=CCCC(C)CCOC(C)C1=C(C)C2=Cc3c(C(C)OCCC(C)CCC=C(C)C)c(C)c4[n]3[Ga][n]3c(c(C)c(CCC(=O)NC(CC(=O)O)C(=O)O)c3=CC3=NC(=C4)C(C)=C3CCC(=O)NC(CC(=O)O)C(=O)O)=CC1=N2 (stereo not shown) [(18) C10(Citro)-Ga-DP-diAsp]
Observed Value: G2

Cited source: patent EP0350948B1
